# Test system: HT-29
# Test Protocol: Cytotoxicity against human HT-29 cells assessed as cell growth inhibition measured after 72 hrs by MTT assay
# Type: functional, cell-based
# Stated Conditions: HT-29, 72 h
Property: IC50

Structure String: C=C[C@]1(C)C[C@@H](OC(=O)CNC(=O)Nc2ccc(Cl)cc2)[C@]2(C)[C@H](C)CC[C@]3(CCC(=O)[C@H]32)[C@@H](C)[C@@H]1O
Tested Target: HT-29
Property: IC50
Readout Value: > 10 µM
--
Structure String: C=C[C@]1(C)C[C@@H](OC(=O)CNC(=O)Nc2cccc(Br)c2)[C@]2(C)[C@H](C)CC[C@]3(CCC(=O)[C@H]32)[C@@H](C)[C@@H]1O
Tested Target: HT-29
Property: IC50
Readout Value: > 10 µM
--
Structure String: C=C[C@]1(C)C[C@@H](OC(=O)CNC(=O)Nc2ccc(F)cc2F)[C@]2(C)[C@H](C)CC[C@]3(CCC(=O)[C@H]32)[C@@H](C)[C@@H]1O
Tested Target: HT-29
Property: IC50
Readout Value: > 10 µM
